test: Cytotoxicity (CC50) in BHK cells
Format: cell-based
study-conditions: hamster
experimental-readout: CC50

compound: CN[C@@H]1[C@@H](O)[C@@H](O[C@@H]2[C@@H](O)[C@H](O[C@H]3O[C@H]([C@@H](C)O)[C@@H](O)[C@H](O)[C@H]3N)[C@@H](N)C[C@H]2N)OC[C@]1(C)O [Geneticin]
experimental-readout: CC50
endpoint-result: 160 µg/mL
